- Tested on: Staphylococcus aureus
- Assay notes: Antibacterial activity against erythromycin susceptible Staphylococcus aureus by agar microdilution method
- Format: functional
Quick list: MIC per entry.
Quantity name: MIC

{"columns": ["Compound", "Reported measurement"],
 "data": [
  ["C=CCO[C@]1(C)C[C@@H](C)NC(=O)[C@H](C)[C@@H](O)[C@](C)(O)[C@@H](CC)OC(=O)[C@H](C)[C@@H](OC(=O)CCNC(C)C(=O)Nc2ccccc2)[C@H](C)[C@H]1O[C@@H]1O[C@H](C)C[C@H](N(C)C)[C@H]1O (some centres undefined)", "2 µg/mL"],
  ["CC[C@H]1OC(=O)[C@H](C)[C@@H](OC(=O)CCNCCNc2cc3c(=O)c(C(=O)O)cn(C4CC4)c3cc2Cl)[C@H](C)[C@@H](O[C@@H]2O[C@H](C)C[C@H](N(C)C)[C@H]2O)[C@](C)(OC/C=C/c2cccc3ncccc23)C[C@@H](C)NC(=O)[C@H](C)[C@@H](O)[C@]1(C)O", "1 µg/mL"],
  ["C=CCO[C@]1(C)C[C@@H](C)NC(=O)[C@H](C)[C@@H](O)[C@](C)(O)[C@@H](CC)OC(=O)[C@H](C)[C@@H](OC(=O)CCN2CCN(c3cc4c(=O)c(C(=O)O)cn(C5CC5)c4cc3Cl)CC2)[C@H](C)[C@H]1O[C@@H]1O[C@H](C)C[C@H](N(C)C)[C@H]1O", "≤ 0.125 µg/mL"],
  ["CC[C@H]1OC(=O)[C@H](C)[C@@H](OC(=O)CCNCCNc2cc3c(=O)c(C(=O)O)cn(C4CC4)c3cc2Cl)[C@H](C)[C@@H](O[C@@H]2O[C@H](C)C[C@H](N(C)C)[C@H]2O)[C@](C)(OC/C=C/c2ccnc3ccccc23)C[C@@H](C)NC(=O)[C@H](C)[C@@H](O)[C@]1(C)O", "0.5 µg/mL"]
]}

###

Item-by-item account of MIC
- System: Staphylococcus aureus
- Assay notes: Antibacterial activity against erythromycin susceptible Staphylococcus aureus by agar microdilution method
- Assay type: functional

{"columns": ["Compound smiles", "MIC"],
 "data": [
  ["C=CCO[C@]1(C)C[C@@H](C)NC(=O)[C@H](C)[C@@H](O)[C@](C)(O)[C@@H](CC)OC(=O)[C@H](C)[C@@H](OC(=O)C=C)[C@H](C)[C@H]1O[C@@H]1O[C@H](C)C[C@H](N(C)C)[C@H]1O", "32 µg/mL"],
  ["C=CCO[C@]1(C)C[C@@H](C)NC(=O)[C@H](C)[C@@H](O)[C@](C)(O)[C@@H](CC)OC(=O)[C@H](C)[C@@H](OC(=O)CCN2CCN(c3ccc4c(c3)c(=O)c(C(=O)O)cn4C3CC3)CC2)[C@H](C)[C@H]1O[C@@H]1O[C@H](C)C[C@H](N(C)C)[C@H]1O", "4 µg/mL"],
  ["C=CCO[C@]1(C)C[C@@H](C)NC(=O)[C@H](C)[C@@H](O)[C@](C)(O)[C@@H](CC)OC(=O)[C@H](C)[C@@H](OC(=O)CCNCCCCc2ccccc2)[C@H](C)[C@H]1O[C@@H]1O[C@H](C)C[C@H](N(C)C)[C@H]1O", "2 µg/mL"],
  ["CC[C@H]1OC(=O)[C@H](C)[C@@H](OC(=O)CCNCCNc2cc3c(=O)c(C(=O)O)cn(C4CC4)c3cc2Cl)[C@H](C)[C@@H](O[C@@H]2O[C@H](C)C[C@H](N(C)C)[C@H]2O)[C@](C)(OC/C=C/c2cnc3ccccc3c2)C[C@@H](C)NC(=O)[C@H](C)[C@@H](O)[C@]1(C)O", "≤ 0.125 µg/mL"],
  ["C=CCO[C@]1(C)C[C@@H](C)NC(=O)[C@H](C)[C@@H](O)[C@](C)(O)[C@@H](CC)OC(=O)[C@H](C)[C@@H](OC(=O)CCN2CCN(c3ccc(F)cc3)CC2)[C@H](C)[C@H]1O[C@@H]1O[C@H](C)C[C@H](N(C)C)[C@H]1O", "2 µg/mL"],
  ["COC(=O)c1cn(C2CC2)c2cc(N3CCNCC3)c(F)cc2c1=O", "> 64 µg/mL"],
  ["CC[C@H]1OC(=O)[C@H](C)[C@@H](OC(=O)CCNCCNc2cc3c(=O)c(C(=O)O)cn(C4CC4)c3cc2Cl)[C@H](C)[C@@H](O[C@@H]2O[C@H](C)C[C@H](N(C)C)[C@H]2O)[C@](C)(OC/C=C/c2ccc3ncccc3c2)C[C@@H](C)NC(=O)[C@H](C)[C@@H](O)[C@]1(C)O", "0.25 µg/mL"],
  ["C=CCO[C@]1(C)C[C@@H](C)NC(=O)[C@H](C)[C@@H](O)[C@](C)(O)[C@@H](CC)OC(=O)[C@H](C)[C@@H](OC(=O)CCN2CCN(C(=O)c3ccco3)CC2)[C@H](C)[C@H]1O[C@@H]1O[C@H](C)C[C@H](N(C)C)[C@H]1O", "2 µg/mL"],
  ["C=CCO[C@]1(C)C[C@@H](C)NC(=O)[C@H](C)[C@@H](O)[C@](C)(O)[C@@H](CC)OC(=O)[C@H](C)[C@@H](OC(=O)CCN(C)CCc2ccc([N+](=O)[O-])cc2)[C@H](C)[C@H]1O[C@@H]1O[C@H](C)C[C@H](N(C)C)[C@H]1O", "0.5 µg/mL"]
]}
